- test-protocol: plasma pharmacokinetics in patients
- Format: in vivo, human
- study-conditions: human, plasma, oral
measured-endpoint: Tmax

Quick one: Tmax of Cn1cc(-c2cnc3ccc4ccc(CS(=O)(=O)NCc5ccccn5)cc4c(=O)c3c2)cn1 ? 1 to 3 h

Data origin, for the record: paper PMC7507839
